Values from ChEMBL document CHEMBL1129493

# MEASUREMENT PROTOCOL: Relative concentration of compound (70 mg/Kg) in lung compared to concentration in plasma (160 ug/mL) at the time of tissue collection from rabbit; relative concentration
# Assay type: ADME, organism-based, Oryctolagus cuniculus
# MEASUREMENT CONDITIONS: read-out: Activity
RESULT TYPE: Kp
Give bare numbers.

Input: Quick one: give measured Kp for CN(Cc1cnc2nc(N)nc(N)c2n1)c1ccc(C(=O)N[C@@H](CCC(=O)O)C(=O)O)cc1 [METHOTREXATE]
Output: 0.05

* * *

# System: Vero
# MEASUREMENT PROTOCOL: Cytotoxic Activity was evaluated against Vero tumor cells
# Assay type: functional, cell-based
# MEASUREMENT CONDITIONS: Chlorocebus sabaeus
RESULT TYPE: pIC50
Numbers only, as −log10 of the molar value.

// worked examples, pIC50 included
compound="CN(Cc1cnc2nc(N)nc(N)c2n1)c1ccc(C(=O)N[C@@H](CCC(=O)O)C(=O)O)cc1 [METHOTREXATE]" reported_value=8.04
compound=COc1ccc(OC)c(Cc2cnc3nc(N)nc(N)c3c2C)c1 reported_value=7.52
compound="COc1cc(NCc2ccc3nc(N)nc(N)c3c2C)cc(OC)c1OC [TRIMETREXATE]" reported_value=7.80

Next, consider the following compound.
Input: Look up Vero data: pIC50 of CCC(CC)n1c(C)cc2c3c(N)nc(N)nc3ccc21 , then report it.
Output: 9.00

* * *

# EXPERIMENTAL TARGET: Dihydrofolate reductase (Candida albicans)
# Sequence (P22906 whole entry): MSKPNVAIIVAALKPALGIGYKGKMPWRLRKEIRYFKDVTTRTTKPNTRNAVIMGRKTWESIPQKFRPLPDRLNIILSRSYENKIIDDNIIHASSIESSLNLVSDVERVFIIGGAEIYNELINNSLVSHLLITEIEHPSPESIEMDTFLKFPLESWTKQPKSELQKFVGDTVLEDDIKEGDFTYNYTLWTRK
Record form. Attribute: Ki. Fill in for each entry.
Give bare numbers, in nM.

// worked examples, Ki included
compound=CC(C)(C)c1cc2c(ccc3nc(N)nc(N)c32)[nH]1 quantity_unit=nM reported_value=0.12
compound=CCCCc1cc2c3c(N)nc(N)nc3ccc2n1C(C)(C)C quantity_unit=nM reported_value=0.38
compound=COc1cc(Cn2ccc3c4c(N)nc(N)nc4ccc32)cc(OC)c1OC quantity_unit=nM reported_value=0.23

Give one value of Ki per listed compound.
1. COc1cc(NCc2ccc3nc(N)nc(N)c3c2C)cc(OC)c1OC [TRIMETREXATE]
2. Cn1ccc2c3c(N)nc(N)nc3ccc21
3. COc1ccc(OC)c(Cc2cnc3nc(N)nc(N)c3c2C)c1 [PIRITREXIM]
4. Nc1nc(N)c2c(ccc3[nH]ccc32)n1
5. Cc1cc2c3c(N)nc(N)nc3ccc2n1C(C)C

Output:
1: 1.9; 2: 25; 3: 1.9; 4: 23; 5: 0.22

Give one value of Ki per listed compound.
1. CCc1cc2c3c(N)nc(N)nc3ccc2n1C
2. CC(C)c1cc2c(ccc3nc(N)nc(N)c32)[nH]1
3. CCC(CC)n1c(C)cc2c3c(N)nc(N)nc3ccc21

Output:
[1.3, 0.16, 0.03]

Give one value of Ki per listed compound.
1. CCc1cc2c3c(N)nc(N)nc3ccc2n1CC
2. CCC(CC)n1ccc2c3c(N)nc(N)nc3ccc21

Output:
0.33
0.22
